Numbers sourced from patent US10150771B2.

Record form. Attribute: IC50. Fill in for each entry.
# system.tested: PDE1B (Homo sapiens, UniProt Q01064)
# Sequence (Q01064 whole entry): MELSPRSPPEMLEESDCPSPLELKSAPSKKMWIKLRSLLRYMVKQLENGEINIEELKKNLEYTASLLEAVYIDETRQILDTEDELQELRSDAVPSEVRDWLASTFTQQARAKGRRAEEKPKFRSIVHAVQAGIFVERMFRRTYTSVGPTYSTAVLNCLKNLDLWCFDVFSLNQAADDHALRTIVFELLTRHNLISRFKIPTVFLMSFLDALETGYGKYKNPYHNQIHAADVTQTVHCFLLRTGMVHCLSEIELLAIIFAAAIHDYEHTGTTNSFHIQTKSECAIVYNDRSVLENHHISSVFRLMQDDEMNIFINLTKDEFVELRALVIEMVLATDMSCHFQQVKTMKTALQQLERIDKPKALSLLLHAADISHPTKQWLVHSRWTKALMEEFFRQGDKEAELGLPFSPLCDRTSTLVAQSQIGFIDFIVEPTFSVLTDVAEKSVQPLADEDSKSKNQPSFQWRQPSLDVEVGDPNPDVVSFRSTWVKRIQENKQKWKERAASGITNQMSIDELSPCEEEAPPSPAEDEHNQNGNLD
# experimental.details: PDE1 inhibition assay (SPA), PDE1B
# Format: biochemical
# condition.notes: concentration required to reach 50% inhibition of the enzyme; 15 nM tritium labelled cAMP; read-out: PDE1B inhibition (nM or %): IC50
Answers are plain numbers, in nM.

{"compound": "CCCc1nnc2c(=O)n(Cc3cccc(C)c3)ccn12", "unit.label": "nM", "IC50": 1600}
{"compound": "Cc1ccc(Cc2cn3c(C4CCOCC4)nnc3c(=O)n2CC2CCCCCC2)cc1", "unit.label": "nM", "IC50": 1}
{"compound": "Cc1cccc(Cc2cn3c(C4CCOCC4)nnc3c(=O)n2Cc2cccc(F)c2)c1", "unit.label": "nM", "IC50": 9}
{"compound": "O=c1c2nnc(C3CCOCC3)n2ccn1CC1CCCCC1", "unit.label": "nM", "IC50": 190}
{"compound": "Cc1ccc(Cc2cn3c(C4CCOCC4)nnc3c(=O)n2CC2CCCC2)cc1", "unit.label": "nM", "IC50": 19}
{"compound": "CCCc1nnc2c(=O)n(Cc3cccc(F)c3)c([C@H]3CCOC3)cn12 (single isomer, unassigned)", "unit.label": "nM", "IC50": 1800}
{"compound": "CCCc1nnc2c(=O)n(CC3CCOC3)ccn12 (single isomer, unassigned)", "unit.label": "nM", "IC50": 4000}
{"compound": "Cc1ccccc1Cc1cn2c(C3CCOCC3)nnc2c(=O)n1Cc1cccc(F)c1", "unit.label": "nM", "IC50": 82}

Hey, quick one: what's IC50 for each of these?
1. CCCc1nnc2c(=O)n(CC3CCCCC3C)ccn12 (mixture of isomers)
2. Cc1ccccc1Cc1cn2c(C3CCOCC3)nnc2c(=O)n1CC1CCCCCC1
3. O=c1c2nnc(C3CCOCC3)n2cc(Cc2cccc(F)c2)n1CC1CCCC1
4. Cn1c(Cc2ccccc2)cn2c(C3CCOCC3)nnc2c1=O
5. O=c1c2nnc(C3CCOCC3)n2cc(Cc2ccccc2)n1CC1CCCCCC1
6. O=c1c2nnc(C3CCCCC3)n2ccn1Cc1cccc(F)c1

[260, 39, 220, 1600, 4, 590]

Hey, quick one: what's IC50 for each of these?
1. CCCc1nnc2c(=O)n(CC3CC3)ccn12
2. Cc1ccc(Cc2cn3c(C4CCOCC4)nnc3c(=O)n2CC2CCCCC2)cc1

1: 2000; 2: 2

Hey, quick one: what's IC50 for each of these?
1. O=c1c2nnc(C3CCOCC3)n2cc(Cc2ccc(F)cc2)n1CC1CCCC1
2. O=c1c2nnc(C3CCOCC3)n2cc(Br)n1CC1CCCCC1
3. CCCc1nnc2c(=O)n(Cc3ccccc3F)ccn12
4. O=c1c2nnc(C3CCOCC3)n2cc(Cc2ccc(F)cc2)n1Cc1cccc(F)c1
5. O=c1c2nnc(CC3CCOC3)n2ccn1Cc1cccc(F)c1 (centres unmarked)
6. O=c1c2nnc(C3CCOCC3)n2cc(Cc2ccccc2)n1CC1CCCC1

1: 140; 2: 17; 3: 1000; 4: 43; 5: 1900; 6: 46

Hey, quick one: what's IC50 for each of these?
1. O=c1c2nnc(C3CCOCC3)n2cc(Cc2ccccc2)n1CC1CCCCC1
2. CCCc1nnc2c(=O)n(Cc3ccc(C(F)(F)F)cc3)ccn12
3. CCCc1nnc2c(=O)n(CC3(C)CCCCC3)ccn12
4. O=c1c2nnc(C3CCOCC3)n2cc(Cc2ccc(F)cc2)n1CC1CCCCCC1
5. O=c1c2nnc(C3CCOCC3)n2cc(Cc2ccc(F)cc2)n1CC1CCCCC1

[11, 570, 950, 9, 17]

Hey, quick one: what's IC50 for each of these?
1. CCCc1nnc2c(=O)n(CC3CCC(C)(C)CC3)ccn12
2. CCCc1nnc2c(=O)n(CC3CCC(C)CC3)ccn12 (racemic)
3. CCCc1nnc2c(=O)n(Cc3cccc(F)c3)cc(CC)n12
4. O=c1c2nnc(C3CC3)n2ccn1Cc1cccc(F)c1
5. O=c1c2nnc(C3CCOCC3)n2cc(Cc2cccc(F)c2)n1Cc1cccc(F)c1
6. O=c1c2nnc(C3CCOCC3)n2cc(Cc2ccccc2)n1Cc1ccc(F)cc1
7. O=c1c2nnc([C@H]3CC[C@H](O)CC3)n2ccn1Cc1cccc(F)c1

110
53
510
780
40
12
630

Hey, quick one: what's IC50 for each of these?
1. CCCc1nnc2c(=O)n(CC3CCC(C)CC3)ccn12 (single isomer, unassigned)
2. O=c1c2nnc(C3CCOCC3)n2ccn1CC1CCCCCC1
3. Cc1ccccc1Cc1cn2c(C3CCOCC3)nnc2c(=O)n1CC1CCCC1
4. Cc1cccc(Cc2cn3c(C4CCOCC4)nnc3c(=O)n2CC2CCCCC2)c1

[40, 33, 260, 3]

Hey, quick one: what's IC50 for each of these?
1. CCCc1nnc2c(=O)n(Cc3cccc(F)c3)ccn12
2. O=c1c2nnc(C3CCOCC3)n2cc(Br)n1Cc1cccc(F)c1

[1200, 150]

Hey, quick one: what's IC50 for each of these?
1. O=c1c2nnc(CCF)n2ccn1Cc1cccc(F)c1
2. CCCc1nnc2c(=O)n(CC3CCCC3)ccn12
3. CCCc1nnc2c(=O)n(CC3CCC(F)CC3)ccn12 (mixture of isomers)
4. CCCc1nnc2c(=O)n(Cc3ccc(F)cc3)ccn12

3000
820
560
1200
